- Measurement Target: alkaline phosphatase (Bos taurus, UniProt P19111)
- Sequence (P19111 20-506 limits assumed): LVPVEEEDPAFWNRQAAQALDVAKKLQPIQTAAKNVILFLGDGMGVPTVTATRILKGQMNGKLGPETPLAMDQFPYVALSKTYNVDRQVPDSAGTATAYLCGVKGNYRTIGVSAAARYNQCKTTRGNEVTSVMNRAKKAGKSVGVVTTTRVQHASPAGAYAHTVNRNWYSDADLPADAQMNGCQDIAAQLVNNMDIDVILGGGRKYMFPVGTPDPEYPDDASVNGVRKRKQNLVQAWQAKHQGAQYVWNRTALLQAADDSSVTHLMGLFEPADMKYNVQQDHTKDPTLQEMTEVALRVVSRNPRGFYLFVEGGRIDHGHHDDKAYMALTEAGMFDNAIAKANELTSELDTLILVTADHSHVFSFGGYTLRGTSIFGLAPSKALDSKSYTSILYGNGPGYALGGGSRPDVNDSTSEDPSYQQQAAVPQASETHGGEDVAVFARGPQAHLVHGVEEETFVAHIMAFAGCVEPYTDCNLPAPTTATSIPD
- Assay Overview: Chemiluminescent signal and signal:background with enhancer polymers (Example XVII)
- Assay type: biochemical
- Test Context: polymer DAA TMQ; 5 min
Would you kindly list SIGNAL for each of these compounds?
No unit in the answer, only the number.

Exercise: Which SIGNAL value belongs to COC1(c2cccc(OP(=O)(O)O)c2)OOC12C1CC3CC2CC(O)(C3)C1 (single isomer, unassigned) [A-OH-AMPPD] ?
Key: 5583.1

Exercise: Which SIGNAL value belongs to COC1(c2cccc(OP(=O)(O)O)c2)OOC12C1CC3CC(C1)CC2C3 (stereo not shown) [AMPPD, reference compound] ?
Key: 8354.4

Exercise: Which SIGNAL value belongs to COC1(c2cccc(OP(=O)(O)O)c2)OOC12C1CC3CC2CC(O)(C3)C1 (single isomer, unassigned) [B-OH-AMPPD] ?
Key: 5486.8

Exercise: Which SIGNAL value belongs to COC1(c2cccc(OP(=O)(O)O)c2)OOC12C1CC3CC2CC(Cl)(C3)C1 (stereo not shown) [Cl-AMPPD] ?
Key: 10328.7
